assay_method_text: folding stability dG unfold (combined trypsin and chymotrypsin); higher = more stable
property_name: folding stability dG unfold (kcal/mol)

                                 biosequence  reading_qualifier  test_result
 0  SAGGSAGGSMIKRTVTVTVYFPGKPLSIPVEYTSEEELPVVAEEAVKPIIEKVPEYKIPEPKLSAGGSAGGS [r12_230_JUSTAS]                  =        0.561
 1  SAMTISVSETPDTGSLTVPMTLEPDTVEEVVEEVAKEIAPEEAEVSIEVTEVVPHPDSVTVTAKITVRPSAG [r14_345_JUSTAS]                  =      -0.0666
 2  SAGGMGFEKVGTFKLEDDVIVEIYKGPEKKLVAKVYFPKTGKVIEDPGHPDESIEELIERIKAIAEEESAGG [r13_624_TrMRF]                  =          4.2
 3  SAGGSPVLVPLEREETDPARGTRTRTRAYRLPERDIALVEREEIPFAPDGTPLRRTSEEVVSLEELLESAGG [r13_807_JUSTAS]                  <           -1
 4  SAGGSAGGGSMSMPVTTKLVEEYTFPGTKEEAEEFLKKKLPPNYQVEITETPDSIKVKVYKVEGSAGGSAGG [r6_953_JUSTAS]                  =         2.38
 5  SAGGSAMVSLEEAKEATLREVKAALGFSPDATPEELRARGVPVRVPITVRDEKGNVIAELELELPGSAGGSA [r15_391_JUSTAS]                  =         0.37
 6  SAGGSAGGSAGGMKVTTINLPDGTTIEYYPETGSVTIHPSDGSVSTRPDLTLEDVLAALSAGGSAGGSAGGS [r10_569_JUSTAS]                  =         2.07
 7  SAGGSQRFRITELVVPEDDGNLFIRVRGPNGKSMFMPASDIEKARKNGKEIEFPFPNGQPFEVEIISAGGSA [r2_301_TrROS]                  =       -0.411
 8  SAGGSGMTVEVSVDPSTGTIRIKIKYGDKEYEVTAPVTRLPDGTYAVELKISAPNGPLLETKEITLPLSAGG [r13_59_JUSTAS]                  =         2.06
 9  SAGGSAGGSAGPKPLATITLPYPDNASVTITVTPNGVLIDPDPNITNPEVEKAVADALTDSAGGSAGGSAGG [r11_372_TrMRF]                  =         1.41
10  SAGKVIVIDAEEMTEEELKEILKKTKPGEKILIIAKSKEVAEKLKELGFEVEEVEKVPLTEEELKKLKKSAG [r5_354_TrROS_Hall]                  =         1.08
11  SAGGSAGGSKLKPFPIKLPGDLSMTIVELPEDPRFIVTVWHPDGDKPIDSIEFEPDEFEANVGSAGGSAGGS [r20_190_TrMRF]                  =        0.591
12  SAEVEVLPFEFELPNGLRVEVHLVRLPDGTVVAPVLLVEYDPVTGEPRLSRAVAVFDPSTGKVTVLPLDSAG [r14_324_TrMRF]                  =         2.97
13  SAGGSAGGSPAPDVTIEVKVTYDPETGALRIEVEATIPGGGKITIEYTIPPLDKIEIVGVKIESAGGSAGGS [r12_1029_TrMRF]                  =          3.6
14  SAGSPIDLGEVEVEEKPVETDPATGLTTTETVITAPDGRPVFVKYTTKDPATGTTTVTETPVGVDPELTSAG [r5_200_JUSTAS]                  <           -1
15  SAGGKIKIKINGKTYTVEDAEIIEVKKNKNGKKEIIIKIKVNGKTYEIVISEEDLKKIKPGDTITLKSAGGS [r16_638_TrROS_Hall]                  =         2.96
16  SHTTTEPATGVTVEVVPSPDGTHVVTVKKPGGEVVKTVTVPSGPRPPGSTTPLTVALTDLPPDVETSVDLSS [r1_263_JUSTAS]                  =        0.232
17  SAGGSSMYKTTTTPLSTFPVRDENGNFLEETKFEKTTVTYPDGSTVTVLKIEVGGKTFTLEVTPTPSAGGSA [r2_158_JUSTAS]                  =        0.565
18  SAGGSAGGSAGMVLLKSEEEAEELRKPNVSLSVTPVPPVEVSEGDPNALAYEVELKPPLESAGGSAGGSAGG [r11_168_JUSTAS]                  =         0.86
19  SAMTLTLTVPPGAKVRVRITNENGETTEIEVEPGETVTITLPAGSTVRVEVEVVDPDGRKRTETFTLKPSAG [r14_568_TrROS_Hall]                  =         3.27
20  SAGGSAGGSAGKPIIKVKIIEKKDGYLKIEIEDEKTGETKTITLKPGQKLEIKLELVKEPSAGGSAGGSAGG [r11_738_TrROS_Hall]                  =         1.62

// provenance: the supplement of paper PMC12764529
